- Tested on: MS2 coat protein
- Test: apparent KD of MS2 coat protein; designed switch direction (-1 OFF switch, 1 ON switch): -1; higher = weaker reporter binding
- Protocol conditions: Eterna round: R95; input ligand: microRNA oligo, concentration not stated
This listing pairs sequences with measured apparent KD of MS2 coat protein.
Hi! Could you send only the number? It should be in nM, unit omitted.

Observe how each entry below is paired with its result.
Sequence data	Experimental readout	Result number
CAGUACUGAGGAUAUACAUGAGGAUCACCCAUGUGUUCCAGCUAGGAAACUAGCAAUAGUAGAAGGCAGUACUG [salish99_ex3_r3_090x] (puzzle: Exclusion 3)	apparent KD of MS2 coat protein	21.3
CUCCUCAUGGCGCCUAAACACAUGAGGAUCACCCAUGUACAGGCUCUUUGCCGUCUUAUAAUAAAACCGAGGAUGCG [Ageusan] (puzzle: Sensor v3, turn-off variant 1)	apparent KD of MS2 coat protein	219

Q: Would you kindly share the measured apparent KD of MS2 coat protein for UUUUAACAUGAGGAUCACCCAUGUGAGGAUAUCGAAAUUUAUAUUUAUAUUUAUAUUACGAGAAGGCACAUUUU [JMF 98] (puzzle: Exclusion 1) ?
A: 84.3
